Hey, just so you know, these numbers are from PubChem BioAssay AID2060909.

test system: 362531-283-R-J2-PDC complex spheroid viability; assay: Anticancer human tumor 362531-283-R-J2-PDC patient-derived colon adenocarcinoma cell line growth inhibition [RAS]; conditions: second compound 0.0949 µM; first compound 0.0949 µM; active compounds read low;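 also: spheroids exposed to the agents for 7 days before readout; luminescence viability as percent of DMSO vehicle control wells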
Below, each entry is listed with its recorded viability, T/C.
Measurement Type: viability, T/C

1) CCc1c2c(nc3ccc(O)cc13)-c1cc3c(c(=O)n1C2)COC(=O)[C@]3(O)CC + CCn1c(-c2cccnc2C(C)OC)c2c3cc(ccc31)N1CCOC(CC(NC(=O)C(C(C)C)N(C)C(=O)C3(F)CCN(C(=O)C#CC(C)(C)N(C)C)CC3)C(=O)N3CCCC(N3)C(=O)OCC(C)(C)C2)C1 ... 40.9%
2) CC1(C)CCC(Nc2ncc(C(F)(F)F)c(-c3c[nH]c4c(P(C)(C)=O)c(C#N)ccc34)n2)CN1 (centres undefined) + CCn1c(-c2cccnc2C(C)OC)c2c3cc(ccc31)N1CCOC(CC(NC(=O)C(C(C)C)N(C)C(=O)C3(F)CCN(C(=O)C#CC(C)(C)N(C)C)CC3)C(=O)N3CCCC(N3)C(=O)OCC(C)(C)C2)C1 ... 103%
3) CC1(C)CCC(Nc2ncc(C(F)(F)F)c(-c3c[nH]c4c(P(C)(C)=O)c(C#N)ccc34)n2)CN1 (centres undefined) + CCn1c(-c2cc(N3CCN(C)CC3)cnc2C(C)OC)c2c3cc(ccc31)-c1csc(n1)CC(NC(=O)C1CC1C)C(=O)N1CCCC(N1)C(=O)OCC(C)(C)C2 ... 82.2%
4) CCc1c2c(nc3ccc(O)cc13)-c1cc3c(c(=O)n1C2)COC(=O)[C@]3(O)CC + CCn1c(-c2cc(N3CCN(C)CC3)cnc2C(C)OC)c2c3cc(ccc31)-c1csc(n1)CC(NC(=O)C1CC1C)C(=O)N1CCCC(N1)C(=O)OCC(C)(C)C2 ... 14.2%
